// inhibition at 504 h lookup, one value per entry
Test Details: Phytotoxicity against Triticum aestivum (wheat) assessed as growth inhibition at 125 g/ha after 3 weeks relative to control
Type: organism-based
Measurement Conditions: in vivo, read-out: GI
Readout Label: inhibition at 504 h

INSERT INTO results (given_smiles, endpoint_result) VALUES
  ('CCOC(=O)[C@@H](C)Oc1ccc(OC(=O)[C@@H](C)Oc2ccc(Oc3ncc(Cl)cc3F)cc2)cc1', '0%'),
  ('C#CCOC(=O)[C@@H](C)Oc1ccc(OC(=O)[C@@H](C)Oc2ccc(Oc3ncc(Cl)cc3Cl)cc2)cc1', '0%'),
  ('COC(=O)[C@@H](C)Oc1ccc(Oc2ncc(Cl)cc2Cl)cc1', '10%'),
  ('CCCCOC(=O)[C@@H](C)Oc1ccc(Oc2ncc(Cl)cc2F)cc1', '15%'),
  ('C#CCOC(=O)[C@@H](C)Oc1ccc(OC(=O)[C@@H](C)Oc2ccc(Oc3ncc(Cl)cc3F)cc2)cc1', '0%'),
  ('CC(C)OC(=O)[C@@H](C)Oc1ccc(Oc2ncc(Cl)cc2F)cc1', '10%'),
  ('CCCOC(=O)[C@@H](C)Oc1ccc(Oc2ncc(Cl)cc2F)cc1', '10%'),
  ('CCCOC(=O)[C@@H](C)Oc1ccc(Oc2ncc(Cl)cc2Cl)cc1', '15%'),
  ('CC(C)OC(=O)[C@@H](C)Oc1ccc(OC(=O)[C@@H](C)Oc2ccc(Oc3ncc(Cl)cc3F)cc2)cc1', '0%'),
  ('CCOC(=O)[C@@H](C)Oc1ccc(Oc2ncc(Cl)cc2F)cc1', '5%');

----------
Test Details: Phytotoxicity against Triticum aestivum (wheat) assessed as growth inhibition at 125 g/ha after 3 weeks relative to control
Type: organism-based
Measurement Conditions: in vivo, read-out: GI
Readout Label: inhibition at 504 h

INSERT INTO results (given_smiles, endpoint_result) VALUES
  ('CCOC(=O)[C@@H](C)Oc1ccc(OC(=O)[C@@H](C)Oc2ccc(Oc3ncc(Cl)cc3Cl)cc2)cc1', '0%'),
  ('COC(=O)[C@@H](C)Oc1ccc(Oc2ncc(Cl)cc2F)cc1', '10%'),
  ('CCCOC(=O)[C@@H](C)Oc1ccc(OC(=O)[C@@H](C)Oc2ccc(Oc3ncc(Cl)cc3F)cc2)cc1', '0%'),
  ('COC(=O)[C@@H](C)Oc1ccc(OC(=O)[C@@H](C)Oc2ccc(Oc3ncc(Cl)cc3Cl)cc2)cc1', '0%'),
  ('COC(=O)[C@@H](C)Oc1ccc(OC(=O)[C@@H](C)Oc2ccc(Oc3ncc(Cl)cc3F)cc2)cc1', '0%');

----------
// inhibition at 504 h lookup, one value per entry
Test Details: Phytotoxicity against Triticum aestivum (wheat) assessed as growth inhibition at 125 g/ha after 3 weeks relative to control
Format: organism-based
Measurement Conditions: in vivo, read-out: GI
Readout Label: inhibition at 504 h (%)

INSERT INTO measurements (given_smiles, readout_label, endpoint_result) VALUES
  ('C#CCOC(=O)[C@@H](C)Oc1ccc(Oc2ncc(Cl)cc2Cl)cc1', 'inhibition at 504 h', 0),
  ('CCCOC(=O)[C@@H](C)Oc1ccc(OC(=O)[C@@H](C)Oc2ccc(Oc3ncc(Cl)cc3Cl)cc2)cc1', 'inhibition at 504 h', 0),
  ('C#CCOC(=O)[C@@H](C)Oc1ccc(Oc2ncc(Cl)cc2F)cc1', 'inhibition at 504 h', 0),
  ('CCCCOC(=O)[C@@H](C)Oc1ccc(OC(=O)[C@@H](C)Oc2ccc(Oc3ncc(Cl)cc3F)cc2)cc1', 'inhibition at 504 h', 5),
  ('CCOC(=O)[C@@H](C)Oc1ccc(Oc2ncc(Cl)cc2Cl)cc1', 'inhibition at 504 h', 10);

----------
Test Details: Phytoxicity against Hordeum vulgare (barley) assessed as growth inhibition at 125 g/ha after 3 weeks relative to control
Format: organism-based
Measurement Conditions: in vivo, read-out: GI
Readout Label: inhibition at 504 h

INSERT INTO measurements (given_smiles, readout_label, endpoint_result) VALUES
  ('CC(C)OC(=O)[C@@H](C)Oc1ccc(OC(=O)[C@@H](C)Oc2ccc(Oc3ncc(Cl)cc3F)cc2)cc1', 'inhibition at 504 h', '12%'),
  ('CCOC(=O)[C@@H](C)Oc1ccc(Oc2ncc(Cl)cc2Cl)cc1', 'inhibition at 504 h', '25%'),
  ('C#CCOC(=O)[C@@H](C)Oc1ccc(Oc2ncc(Cl)cc2Cl)cc1', 'inhibition at 504 h', '20%'),
  ('CCOC(=O)[C@@H](C)Oc1ccc(OC(=O)[C@@H](C)Oc2ccc(Oc3ncc(Cl)cc3Cl)cc2)cc1', 'inhibition at 504 h', '15%'),
  ('COC(=O)[C@@H](C)Oc1ccc(Oc2ncc(Cl)cc2Cl)cc1', 'inhibition at 504 h', '30%');

----------
Tested on: Avena fatua
Test Details: Herbicidal activity against Avena fatua assessed as growth inhibition at 125 g/ha after 3 weeks relative to control
Assay type: functional
Measurement Conditions: 504 h, read-out: GI
Readout Label: inhibition of growth at 125 g/ha (%)

INSERT INTO measurements (given_smiles, readout_label, endpoint_result) VALUES
  ('CCOC(=O)[C@@H](C)Oc1ccc(Oc2ncc(Cl)cc2F)cc1', 'inhibition of growth at 125 g/ha', 90),
  ('COC(=O)[C@@H](C)Oc1ccc(OC(=O)[C@@H](C)Oc2ccc(Oc3ncc(Cl)cc3F)cc2)cc1', 'inhibition of growth at 125 g/ha', 90),
  ('COC(=O)[C@@H](C)Oc1ccc(Oc2ncc(Cl)cc2F)cc1', 'inhibition of growth at 125 g/ha', 90),
  ('CCCOC(=O)[C@@H](C)Oc1ccc(OC(=O)[C@@H](C)Oc2ccc(Oc3ncc(Cl)cc3F)cc2)cc1', 'inhibition of growth at 125 g/ha', 89);
